Examples of compounds with documented viability follow.
method.description: P. berghei load reduction in hepatocytes – cell-based, HepG2, luciferase luminescence, HepG2 viability, primary screen (AID 624349);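 also: 100% = mean of DMSO negative control wells on the same plate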
measurement.setup: P. berghei liver stage in HepG2, luciferase luminescence, concentration not given here; measured here: HepG2 viability without parasites
Your reply should be a number followed by the unit it is expressed in.

# example entries with known answers
compound | meas.value
COc1cc(OC)c2c(c1Cl)O[C@]1(C2=O)C(OC)CC(=O)C[C@H]1C (stereo partly drawn) | 93.9%
COC1CC(O[C@@H]2[C@H](C)[C@H](OC3OC(C)CC(N(C)C)C3OC(C)=O)[C@H](C)CC3(CO3)C(=O)[C@@H](C)C(OC(C)=O)[C@H](C)[C@H](C)OC(=O)[C@@H]2C)OC(C)C1OC(C)=O (stereo partly drawn) | 90.9%
N#Cc1cnc2cnc(NCc3cccnc3)cc2c1NC1CCCCCC1 | 65.1%
C=C1/C(=C/C=C2/CCC[C@]3(C)[C@@H]([C@H](C)CCCC(C)C)CC[C@@H]23)C[C@@H](O)C[C@@H]1O | 115%
O=c1[nH][nH]c2nnc(-c3c(-c4ccccc4)nn4ccccc34)cc12 | 101%
CCC(=O)OCC(=O)[C@@]1(OC(=O)CC)[C@@H](C)C[C@H]2[C@@H]3CCC4=CC(=O)C=C[C@]4(C)C3(F)[C@@H](O)C[C@@]21C (stereo partly drawn) | 67%

# return recorded viability for input CN=C(NC#N)NCCSCC1N=CN=C1C (stereo not drawn) 88.8%

Dear colleague, please send me the reported viability for CN1CC[C@]23c4ccccc4N[C@H]1[C@]21CCN(C)[C@H]3Nc2ccccc21 when you can. 96.8%
